Provide the recorded microsomal CLint at 1 μmol/L for the entries that follow.
Assay Explanation: Evaluation of microsome stability in human
Type: in vitro ADME
Experimental Setup: pH 7.4; in vitro intrinsic metabolic clearance; human liver microsomes 0.2 mg/mL, 1 μmol/L test compound, NADPH-generating system
Could you give the number and then its unit, please?

[
  {
    "Compound": "CCS(=O)(=O)N[C@@H]1[C@H](Cc2cccc(-c3cccc(F)c3)c2F)N(C(=O)[C@H]2C[C@H](F)C2)CC1(F)F [Example 225]",
    "microsomal CLint at 1 μmol/L": "60 µL/min/mg"
  }
]

List the reported microsomal CLint at 1 μmol/L of each compound below.
1. CCS(=O)(=O)N[C@@H]1[C@H](Cc2cccc(-c3cc(F)cc(F)c3)c2F)N(C(=O)[C@H]2C[C@H](F)C2)CC1(F)F [Example 375]
2. CCS(=O)(=O)N[C@H]1[C@@H](F)CN(C(=O)C2CC2)[C@H]1Cc1cccc(-c2cc(F)cc(F)c2)c1F [Example 236]

## Result
35 µL/min/mg
67 µL/min/mg

Source of measurements: patent US20230040770A1
